TESTED_ON: Endonuclease III-like protein 1 (Homo sapiens)
DETAILS: Compound Concentration 1.0 uM, Hit No;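 note: enzyme assay tracking NTHL1 cutting and release of a quenched double-stranded DNA oligo substrate, read as fluorescence at 594 nm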
Description: Inhibition of NTHL1 by quantifying inhibition of NTHL1-mediated cleavage and dissociation of quenched duplex DNA oligonucleotides, measured as fluorescence at 594 nm.
ENDPOINT_NAME: inhibition (%)

Cc1c[nH]c2nccc(Oc3c(F)cc(Nc4cc(Cl)nc(N)n4)cc3F)c12    -0.432
COc1ncc(-c2ccc3nccc(-c4ccnnc4)c3c2)cc1NS(=O)(=O)c1ccc(F)cc1F    9.15
CN(C)C(=O)Cn1cc(-c2ccc(-c3cncc4ccccc34)cc2)cn1    -6.19
CCc1cc(Nc2nccc(-c3c(-c4ccc(OC)c(C(=O)Nc5c(F)cccc5F)c4)nc4ccccn34)n2)c(OC)cc1N1CCC(N2CCN(S(C)(=O)=O)CC2)CC1    -1.31
CCC(=O)N1CCN(c2ccc(-n3c(=O)ccc4cnc5ccc(-c6cnc7ccccc7c6)cc5c43)cc2C(F)(F)F)CC1    6.36
CN1CCN(C(=O)C(C)(C)c2ccc(C(=O)Nc3cn4cc(-c5ccncc5)ccc4n3)cc2)CC1    4.27
O=S(=O)(NC1CCC(c2cc(F)ccc2F)(S(=O)(=O)c2ccc(Cl)cc2)CC1)C(F)(F)F (stereo not drawn)    -3.92
CCc1ccccc1C(=O)Nc1n[nH]c2c(C)c(F)c(C3C(C#N)=C(C)N(C)C(C)=C3C#N)cc12    13.3
